System: Rho-A (Homo sapiens (Human), UniProt P61586)
Sequence (P61586 whole entry): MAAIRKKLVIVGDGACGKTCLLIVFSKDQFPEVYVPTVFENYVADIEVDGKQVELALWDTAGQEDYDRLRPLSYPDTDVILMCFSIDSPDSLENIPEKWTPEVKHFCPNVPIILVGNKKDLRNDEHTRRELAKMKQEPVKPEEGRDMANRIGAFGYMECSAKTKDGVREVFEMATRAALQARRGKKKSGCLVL
Run Description: Rho inhibition assay (labeled GTP)
Type: binding
Experimental Conditions: read-out: Rho-A % Inh.
Parameter: inhibition at 20 µM. Scope: all listed entries.

The following molecules have reported results that may help.
Cc1sc2c(O)nc(-c3ccccn3)nc2c1C(=O)N1CCN(c2ccccc2)CC1 [drawing 3827] | 76 to 100%
Cc1c(C(=O)O)sc2c(O)nc(-c3ccccn3)nc12 [drawing 3794] | 51 to 75%
Cc1cnc(-c2ccccn2)nc1NC(=O)C1CCCc2cc(C#N)ccc21 (stereo not drawn) [drawing 3699] | 76 to 100%
COc1ccnc(-c2nc(O)c3c(CN)csc3n2)c1 | 25 to 50%
CCN(CC)CCOc1nc(-c2nccn2C)nc2sc(-c3ccccc3)c(-c3ccccc3)c12 [drawing 3891] | 1 to 25%

Recorded inhibition at 20 µM of O=C(NCCc1ccncn1)c1csc2nc(-c3ccccn3)nc(N3CCOCC3)c12 [drawing 3819] , please. 51 to 75%

Same thing, different molecule: COc1ccc(C2CN(C(=O)c3csc4c(O)nc(-c5ccccn5)nc34)CCN2)cc1 (stereo not drawn) [drawing 3663] 76 to 100%

What about Nc1nc(-c2ccccn2)nc2scc(Br)c12 [drawing 3766] ? 51 to 75%

Lookup Cc1sc2c(O)nc(-c3nccn3C)nc2c1-c1ccccc1 [drawing 3912] 51 to 75%
